The values you see were collected from patent US12637433B2.

target.under.test: human HDAC7 enzyme (Homo sapiens, UniProt Q8WUI4)
Construct: purchased Reaction Biology Corp
Sequence (Q8WUI4 whole entry): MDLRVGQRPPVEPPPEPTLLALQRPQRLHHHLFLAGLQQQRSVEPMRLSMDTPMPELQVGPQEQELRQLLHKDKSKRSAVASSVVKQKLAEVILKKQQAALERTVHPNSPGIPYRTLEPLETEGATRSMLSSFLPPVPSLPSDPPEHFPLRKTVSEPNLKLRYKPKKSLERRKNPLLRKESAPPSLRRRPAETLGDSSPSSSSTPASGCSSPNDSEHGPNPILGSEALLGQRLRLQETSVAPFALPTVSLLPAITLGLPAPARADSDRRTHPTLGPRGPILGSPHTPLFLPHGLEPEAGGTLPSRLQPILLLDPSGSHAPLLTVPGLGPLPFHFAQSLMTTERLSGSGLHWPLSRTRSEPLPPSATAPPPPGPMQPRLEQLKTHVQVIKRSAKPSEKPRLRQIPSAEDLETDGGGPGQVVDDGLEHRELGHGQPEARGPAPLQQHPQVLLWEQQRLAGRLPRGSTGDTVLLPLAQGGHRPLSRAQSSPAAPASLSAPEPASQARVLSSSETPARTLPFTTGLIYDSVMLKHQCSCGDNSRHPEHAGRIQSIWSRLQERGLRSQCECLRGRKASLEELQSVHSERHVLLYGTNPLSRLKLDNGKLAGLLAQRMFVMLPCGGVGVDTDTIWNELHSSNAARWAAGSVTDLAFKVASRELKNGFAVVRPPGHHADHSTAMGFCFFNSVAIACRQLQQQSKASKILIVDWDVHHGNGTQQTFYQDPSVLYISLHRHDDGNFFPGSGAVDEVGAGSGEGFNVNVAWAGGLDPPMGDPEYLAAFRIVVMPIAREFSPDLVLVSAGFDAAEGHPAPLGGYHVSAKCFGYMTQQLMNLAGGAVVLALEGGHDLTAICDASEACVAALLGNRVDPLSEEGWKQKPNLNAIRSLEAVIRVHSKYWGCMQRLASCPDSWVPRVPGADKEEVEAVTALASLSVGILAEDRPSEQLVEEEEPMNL
protocol.summary: Human HDAC7 enzyme assay (Class IIa HDACs)
Type: biochemical
condition.notes: Table 8; recombinant human HDAC7
reported.property: IC50 (nM)
Use nM as the unit, but write only the number.

Below are worked cases with known answers.
- structure.notation: "Cc1nc2ccccc2c(=O)n1Cc1ccc(C(=O)NO)c(-c2ccc(F)cc2)c1"
  endpoint.unit: "nM"
  result.value: 6.4
- structure.notation: "Cc1ccc(Nc2ccc(C(=O)NO)c(-c3ccccc3)c2)cc1"
  endpoint.unit: "nM"
  result.value: 81
- structure.notation: "O=C(NCc1ccc(C(=O)NO)c(-c2ccccc2)c1)c1cnc[nH]1"
  endpoint.unit: "nM"
  result.value: 165
- structure.notation: "CN(C)c1ccc(C2(C(=O)Nc3ccc(C(=O)NO)c(-c4ccccc4)c3)CCCC2)cc1"
  endpoint.unit: "nM"
  result.value: 556

Pending molecule:
QUERY: Please look at this molecule and report its IC50: O=C(NO)c1ccc(NC(=O)C2(C(=O)Nc3ccccc3)CCC2)cc1-c1ccccc1
RESULT: 75

* * *

target.under.test: human HDAC7 enzyme (Homo sapiens)
Construct: purchased Reaction Biology Corp
protocol.summary: Human HDAC7 enzyme assay (Class IIa HDACs)
Format: biochemical
condition.notes: Table 8; recombinant human HDAC7
Rule: IC50 below 200 nM gives yes (1), anything at or above gives no (0).

- structure.notation: "O=C(NO)c1ccc(Nc2cnccn2)cc1-c1ccccc1"
  label.value: "no (0)"
- structure.notation: "O=C(NO)c1ccc(NC(=O)C2(C(=O)Nc3ccccc3)CCCC2)cc1-c1ccccc1"
  label.value: "no (0)"
- structure.notation: "O=C(NO)c1ccc(Nc2ncccn2)cc1-c1ccccc1"
  label.value: "no (0)"

From here, focus on the item given below.
QUERY: Hi there! Is IC50 for O=C(NO)c1ccc(Nc2ccc(Cl)cc2)cc1-c1ccccc1 below 200 nM, do you know?
RESULT: yes (1)

* * *

target.under.test: HDAC5 (Homo sapiens, UniProt Q9UQL6)
Sequence (Q9UQL6 whole entry, canonical isoform): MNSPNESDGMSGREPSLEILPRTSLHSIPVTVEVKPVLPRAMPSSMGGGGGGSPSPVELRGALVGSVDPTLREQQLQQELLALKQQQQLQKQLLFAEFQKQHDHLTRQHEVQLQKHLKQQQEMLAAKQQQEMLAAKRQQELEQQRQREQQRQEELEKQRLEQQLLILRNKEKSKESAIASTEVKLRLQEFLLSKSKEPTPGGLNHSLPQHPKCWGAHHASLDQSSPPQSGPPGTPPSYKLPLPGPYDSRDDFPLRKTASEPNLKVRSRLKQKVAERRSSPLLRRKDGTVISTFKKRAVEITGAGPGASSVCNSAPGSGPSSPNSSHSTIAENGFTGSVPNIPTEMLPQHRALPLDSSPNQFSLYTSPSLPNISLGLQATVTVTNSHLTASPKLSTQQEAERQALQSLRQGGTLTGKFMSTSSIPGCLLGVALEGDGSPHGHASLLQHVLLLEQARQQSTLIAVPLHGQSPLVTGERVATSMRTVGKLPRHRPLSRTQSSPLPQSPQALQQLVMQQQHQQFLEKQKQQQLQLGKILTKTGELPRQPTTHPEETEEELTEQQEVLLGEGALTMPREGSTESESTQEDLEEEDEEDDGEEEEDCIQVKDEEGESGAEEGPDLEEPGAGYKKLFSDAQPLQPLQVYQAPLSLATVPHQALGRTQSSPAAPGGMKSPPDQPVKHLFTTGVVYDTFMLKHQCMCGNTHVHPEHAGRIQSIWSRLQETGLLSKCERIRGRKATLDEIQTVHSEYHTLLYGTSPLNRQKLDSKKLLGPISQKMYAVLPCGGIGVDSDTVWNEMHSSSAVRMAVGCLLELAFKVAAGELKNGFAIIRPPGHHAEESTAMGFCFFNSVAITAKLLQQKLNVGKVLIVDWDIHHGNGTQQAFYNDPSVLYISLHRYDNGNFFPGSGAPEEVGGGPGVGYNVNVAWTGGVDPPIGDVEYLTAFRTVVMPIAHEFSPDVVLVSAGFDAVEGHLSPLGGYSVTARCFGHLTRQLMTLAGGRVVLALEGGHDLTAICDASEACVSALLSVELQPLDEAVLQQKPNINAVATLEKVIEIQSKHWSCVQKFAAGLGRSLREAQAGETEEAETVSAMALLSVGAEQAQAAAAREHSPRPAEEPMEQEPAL
protocol.summary: Isoform selectivity, HDAC5 inhibition
condition.notes: Table 9; recombinant human HDAC; read-out: IC50, Class IIa HDAC5
reported.property: pIC50
# pIC50 is unitless: minus log10 of the molar concentration; print number only

- structure.notation: "O=C(NO)c1ccc(CN2C(=O)c3ccccc3C2=O)cc1-c1ccccc1"
  result.value: 7.92
- structure.notation: "Cc1nc2ccccc2c(=O)n1Cc1ccc(C(=O)NO)c(-c2ccc(F)cc2)c1"
  result.value: 8.10
- structure.notation: "O=C(NO)c1ccc(CN2C(=O)c3ccccc3S2(=O)=O)cc1-c1ccccc1"
  result.value: 8.10
- structure.notation: "O=C(NO)c1ccc(CN2C(=O)c3cccc(F)c3C2=O)cc1-c1ccccc1"
  result.value: 7.80

Now take the following molecule into account.
QUERY: Give the measured pIC50 for Cc1nc2ccccc2c(=O)n1Cc1ccc(C(=O)NO)c(-c2ccccc2)c1
RESULT: 8.05

* * *

target.under.test: human HDAC7 enzyme (Homo sapiens, UniProt Q8WUI4)
Construct: purchased Reaction Biology Corp
protocol.summary: Human HDAC7 enzyme assay (Class IIa HDACs)
Assay type: biochemical
condition.notes: Table 8; recombinant human HDAC7
We'd kindly ask you to apply these IC50 classes: b0 = under 100 nM, b1 = from 100 nM up to 600 nM, b2 = 600 nM and over

- compound: "O=C(NO)c1ccc(Nc2ccccc2)cc1-c1ccccc1 [Example 66]"
  label.value: "b0"

QUERY: In plain terms, what class is O=C(NCc1ccc(C(=O)NO)c(-c2ccccc2)c1)c1ccccn1 [Example 16] ?
RESULT: b1

* * *

target.under.test: human HDAC7 enzyme (Homo sapiens, UniProt Q8WUI4)
Construct: purchased Reaction Biology Corp
protocol.summary: Human HDAC7 enzyme assay (Class IIa HDACs)
Format: biochemical
condition.notes: Table 8; recombinant human HDAC7
reported.property: IC50 (nM)
Numbers only; they are read as nM.

Here's what some known entries look like.
- structure.notation: "O=C(Nc1ccccc1)Nc1ccc(C(=O)NO)c(-c2ccccc2)c1"
  result.value: 248
- structure.notation: "O=C(O)c1ccc(CNCc2ccc(C(=O)NO)c(-c3ccccc3)c2)cc1-c1ccccc1"
  result.value: 658
- structure.notation: "O=C(NO)c1ccc(CNCc2ccc[nH]2)cc1-c1ccccc1"
  result.value: 914

QUERY: Name the recorded IC50 of the compound listed here: O=C(Nc1ccc(C(=O)NO)c(-c2ccccc2)c1)c1ccccc1
RESULT: 325

QUERY: Look up and report measured IC50 for this entry: O=C(NO)c1ccc(CNCc2ccc(C(=O)NO)c(-c3ccccc3)c2)cc1-c1ccccc1
RESULT: 125

QUERY: Quote IC50 reported for O=C(NCc1ccc(C(=O)NO)c(-c2ccccc2)c1)Nc1cccc2cccnc12 please.
RESULT: 214

* * *

In this section, each of the compounds is paired with its reported pIC50.
target.under.test: HDAC4 (Homo sapiens, UniProt P56524)
Sequence (P56524 whole entry, canonical isoform): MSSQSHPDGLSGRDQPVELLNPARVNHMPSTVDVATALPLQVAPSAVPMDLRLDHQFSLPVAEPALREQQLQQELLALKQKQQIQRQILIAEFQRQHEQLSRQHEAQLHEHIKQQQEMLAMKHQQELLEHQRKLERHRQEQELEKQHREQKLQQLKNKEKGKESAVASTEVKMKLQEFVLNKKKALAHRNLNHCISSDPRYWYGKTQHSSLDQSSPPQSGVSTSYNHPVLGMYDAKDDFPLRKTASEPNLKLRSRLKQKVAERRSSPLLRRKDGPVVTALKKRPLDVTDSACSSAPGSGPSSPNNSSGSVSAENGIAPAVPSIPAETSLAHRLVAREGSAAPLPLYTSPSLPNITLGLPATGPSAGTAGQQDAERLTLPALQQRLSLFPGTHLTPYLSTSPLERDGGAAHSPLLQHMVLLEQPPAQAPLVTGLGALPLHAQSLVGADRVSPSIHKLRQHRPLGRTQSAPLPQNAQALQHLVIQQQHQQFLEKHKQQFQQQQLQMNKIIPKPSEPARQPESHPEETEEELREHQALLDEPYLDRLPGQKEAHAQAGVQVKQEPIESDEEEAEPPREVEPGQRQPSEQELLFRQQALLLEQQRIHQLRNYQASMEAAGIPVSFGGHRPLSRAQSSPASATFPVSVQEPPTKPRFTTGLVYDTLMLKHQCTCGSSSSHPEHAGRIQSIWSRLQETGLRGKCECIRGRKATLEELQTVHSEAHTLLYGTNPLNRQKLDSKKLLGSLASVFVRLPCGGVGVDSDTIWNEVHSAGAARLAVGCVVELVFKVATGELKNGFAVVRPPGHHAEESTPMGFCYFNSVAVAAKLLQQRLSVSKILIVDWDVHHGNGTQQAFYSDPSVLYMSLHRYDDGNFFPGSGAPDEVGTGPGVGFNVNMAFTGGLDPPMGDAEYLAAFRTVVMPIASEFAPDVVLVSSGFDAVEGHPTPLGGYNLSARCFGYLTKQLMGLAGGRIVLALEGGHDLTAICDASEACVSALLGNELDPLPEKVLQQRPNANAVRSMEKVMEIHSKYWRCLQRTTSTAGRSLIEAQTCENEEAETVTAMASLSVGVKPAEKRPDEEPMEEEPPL
protocol.summary: Isoform selectivity, HDAC4 inhibition
condition.notes: Table 9; recombinant human HDAC; read-out: IC50, Class IIa HDAC4
# pIC50 is unitless: minus log10 of the molar concentration; print number only

Consider the following illustrative entries.
- structure.notation: "O=C(NO)c1ccc(CN2C(=O)c3cccc(F)c3C2=O)cc1-c1ccccc1"
  result.value: 7.89
- structure.notation: "O=C(NO)c1ccc(CN2C(=O)c3ccccc3S2(=O)=O)cc1-c1ccccc1"
  result.value: 7.32
- structure.notation: "Cc1nc2ccccc2c(=O)n1Cc1ccc(C(=O)NO)c(-c2ccccc2)c1"
  result.value: 7.38
- structure.notation: "Cc1nc2ccccc2c(=O)n1Cc1ccc(C(=O)NO)c(-c2ccc(F)cc2)c1"
  result.value: 7.66

QUERY: Specify reported pIC50 for the compound shown: O=C(NO)c1ccc(CN2C(=O)c3ccccc3C2=O)cc1-c1ccccc1
RESULT: 7.55

* * *

target.under.test: human HDAC1 enzyme (Homo sapiens, UniProt Q13547)
Construct: purchased BPS Bioscience
Sequence (Q13547 whole entry): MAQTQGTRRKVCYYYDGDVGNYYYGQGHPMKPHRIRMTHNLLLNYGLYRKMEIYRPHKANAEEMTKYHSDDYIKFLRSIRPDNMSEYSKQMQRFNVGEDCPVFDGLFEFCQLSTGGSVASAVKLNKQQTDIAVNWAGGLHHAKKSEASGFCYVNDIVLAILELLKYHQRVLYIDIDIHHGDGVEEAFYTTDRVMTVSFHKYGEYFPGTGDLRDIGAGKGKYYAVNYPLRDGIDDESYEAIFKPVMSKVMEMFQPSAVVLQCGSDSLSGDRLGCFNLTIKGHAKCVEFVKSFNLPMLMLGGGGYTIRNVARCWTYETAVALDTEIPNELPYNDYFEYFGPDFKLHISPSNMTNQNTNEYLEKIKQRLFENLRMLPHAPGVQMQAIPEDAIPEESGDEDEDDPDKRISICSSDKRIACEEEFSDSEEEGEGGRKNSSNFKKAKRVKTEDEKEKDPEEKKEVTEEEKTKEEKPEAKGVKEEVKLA
protocol.summary: Human HDAC1 enzyme assay (Class I HDACs)
Assay type: biochemical
condition.notes: Table 8; recombinant human HDAC1; read-out: IC50 (nM) (HDAC1)
Method: The inhibitory effect of compounds on HDAC1 activity was assessed in vitro using an optimised assay performed in black/flat black wall 384-well plate (Corning Inc.). All reagents and compounds were prepared in HDAC1 assay buffer (25 mM Tris-HCl, 137 mM NaCl, 2.7 mM KCl, 1 mM MgCl2·H2O and 0.1 mg/mL bovine serum albumin; pH 8). […] Fluorescence intensity was measured using PHERAstar plate reader (BMG Labtech) at 350 nm excitation and 460 nm emission. […]
reported.property: IC50

Example entries begin here.
- compound: "CN(C)c1ccc(C2(C(=O)Nc3ccc(C(=O)NO)c(-c4ccccc4)c3)CCCC2)cc1"
  IC50: "> 10000 nM"
- compound: "Cc1nc2ccccc2c(=O)n1Cc1ccc(C(=O)NO)c(-c2ccccc2)c1"
  IC50: "2200 nM"
- compound: "O=C(NO)c1ccc(Cn2c(=O)cc[nH]c2=O)cc1-c1ccccc1"
  IC50: "> 10000 nM"

QUERY: Please give the documented IC50 of O=C(NCc1ccc(C(=O)NO)c(Oc2ccccc2)c1)Nc1cccc2cccnc12 [Example 3, reference compound]
RESULT: 2520 nM

QUERY: # return recorded IC50 for input CCc1nc2ccccc2c(=O)n1Cc1ccc(C(=O)NO)c(-c2ccccc2)c1
RESULT: 5280 nM

QUERY: Give me measured IC50, please, for this compound: O=C(NO)c1ccc(CN2C(=O)c3cccc(F)c3C2=O)cc1-c1ccccc1
RESULT: 27000 nM

* * *

target.under.test: human HDAC6 enzyme (Homo sapiens)
Sequence (Q9UBN7 whole entry): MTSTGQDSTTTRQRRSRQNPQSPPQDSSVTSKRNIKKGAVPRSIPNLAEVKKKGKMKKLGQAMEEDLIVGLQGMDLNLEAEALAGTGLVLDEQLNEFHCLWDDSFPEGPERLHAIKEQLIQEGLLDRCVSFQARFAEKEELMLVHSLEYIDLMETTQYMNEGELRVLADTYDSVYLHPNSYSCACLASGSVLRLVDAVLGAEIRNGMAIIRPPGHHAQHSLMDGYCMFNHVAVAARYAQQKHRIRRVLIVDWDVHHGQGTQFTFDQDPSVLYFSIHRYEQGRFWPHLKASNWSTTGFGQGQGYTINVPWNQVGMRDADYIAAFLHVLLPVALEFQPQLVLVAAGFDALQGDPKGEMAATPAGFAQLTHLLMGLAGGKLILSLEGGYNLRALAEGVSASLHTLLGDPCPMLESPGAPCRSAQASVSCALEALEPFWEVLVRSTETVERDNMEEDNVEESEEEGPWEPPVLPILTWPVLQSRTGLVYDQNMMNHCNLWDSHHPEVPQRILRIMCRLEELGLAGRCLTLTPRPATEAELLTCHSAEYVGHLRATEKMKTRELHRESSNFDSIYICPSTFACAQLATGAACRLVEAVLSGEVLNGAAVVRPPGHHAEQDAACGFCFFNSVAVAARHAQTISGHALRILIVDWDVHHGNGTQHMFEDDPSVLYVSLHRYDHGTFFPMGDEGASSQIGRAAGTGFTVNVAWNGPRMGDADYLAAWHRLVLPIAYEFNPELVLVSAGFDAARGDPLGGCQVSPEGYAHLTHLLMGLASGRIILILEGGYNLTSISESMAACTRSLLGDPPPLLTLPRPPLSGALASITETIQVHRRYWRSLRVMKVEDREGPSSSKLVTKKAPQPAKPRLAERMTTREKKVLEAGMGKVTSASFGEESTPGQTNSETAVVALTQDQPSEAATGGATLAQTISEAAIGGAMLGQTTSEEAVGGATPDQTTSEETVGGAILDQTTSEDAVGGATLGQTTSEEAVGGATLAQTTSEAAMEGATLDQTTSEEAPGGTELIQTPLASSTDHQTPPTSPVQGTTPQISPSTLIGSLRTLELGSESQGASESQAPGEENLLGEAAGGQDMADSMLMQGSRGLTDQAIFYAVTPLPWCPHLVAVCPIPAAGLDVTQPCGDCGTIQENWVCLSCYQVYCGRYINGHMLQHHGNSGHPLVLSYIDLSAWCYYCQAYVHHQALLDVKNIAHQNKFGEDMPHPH
protocol.summary: Human HDAC6 enzyme assay (Class IIb HDACs)
condition.notes: Table 9; recombinant human HDAC
Experimental: The inhibitory effect of compounds on HDAC6 activity was assessed in vitro using an optimised assay performed in black/flat black wall 384-well plate (Corning Inc.). All reagents and compounds were prepared in HDAC assay buffer (25 mM Tris-HCl, 137 mM NaCl, 2.7 mM KCl, 1 mM MgCl2·H2O and 0.1 mg/mL bovine serum albumin; pH 8). […] Fluorescence intensity was measured using PHERAstar plate reader (BMG Labtech) at 350 nm excitation and 460 nm emission. […]
Response field label takes met when IC50 is strictly below 4 µM and not met in all other cases.

Worked cases, answers included:
- compound: "O=C(NO)c1ccc(CN2C(=O)c3ccccc3S2(=O)=O)cc1-c1ccccc1 [Example 56]"
  target.under.test: "human HDAC6 enzyme (Homo sapiens)"
  label.value: "not met"
- compound: "O=C(NO)c1ccc(CN2C(=O)c3cccc(F)c3C2=O)cc1-c1ccccc1 [Example 55]"
  target.under.test: "human HDAC6 enzyme (Homo sapiens)"
  label.value: "not met"
- compound: "Cc1nc2ccccc2c(=O)n1Cc1ccc(C(=O)NO)c(-c2ccccc2)c1 [compound 12]"
  target.under.test: "human HDAC6 enzyme (Homo sapiens)"
  label.value: "met"
- compound: "O=C(NO)c1ccc(CN2C(=O)c3ccccc3C2=O)cc1-c1ccccc1 [Example 36]"
  target.under.test: "human HDAC6 enzyme (Homo sapiens)"
  label.value: "not met"

Here is the next item to consider.
QUERY: Would you kindly verify if IC50 of Cc1nc2ccccc2c(=O)n1Cc1ccc(C(=O)NO)c(-c2ccc(F)cc2)c1 [Example 14] is strictly less than 4 µM?
RESULT: met
